This listing pairs molecules with measured Hb.
Species: Rattus norvegicus
Assay Method Text: Open TG-GATES - Regimen: Daily Repeat
Assay type: toxicity, organism-based, Sprague-Dawley
Set-up: regimen Daily Repeat, gender Male, age 6 weeks
Test Settings: in vivo, po, 100 mg/kg, 72 h, tissue Blood, route gavage, dose level Low, time 3 day
Write the number in g/dL without appending the unit.

- Molecule: "O=C(O)c1ccccc1Nc1ccccc1"
  Hb [g/dL]: 13.5
- Molecule: "CC(S)C(=O)NCC(=O)O (centres undefined)"
  Hb [g/dL]: 13
- Molecule: "CC(=O)[C@@]1(O)CC[C@H]2[C@@H]3C=C(Cl)C4=CC(=O)CC[C@]4(C)[C@H]3CC[C@@]21C"
  Hb [g/dL]: 14.1

# context switch: different molecule, same Hb
Reported Hb, molecule CCCCNC(=O)NS(=O)(=O)c1ccc(C)cc1 [TOLBUTAMIDE] : ____ 13.7

Where do these numbers come from? They come from ChEMBL document CHEMBL3885861.
